Test system: HOP-92 NSCLC
Test description: NCI-60 one-dose screen, 48 h (100 = growth as untreated, 0 = no growth, -100 = all killed)
Assay setup: 10 µM
This is part of a sample that, as a whole, favours compounds with a hit. Of some 83,000 tested, about 20% had one in any assay.
Give growth for every item shown.
One number for each entry, in %.

Observe how each entry below is paired with its result.
Compound	Attribute measured	Unit abbreviation	Quantitative result
COc1ccc(OC)c(/C=C2\CCc3ccccc3C2=O)c1	growth	%	45.2
N#Cc1c(N)sc(=S)c2c1CCCC2	growth	%	103
O=[N+]([O-])c1ccc(N=Nc2ccc(O)c3ccccc23)cc1	growth	%	10.8

Please look at the items below and tell me growth for each one, in order.
1. Cc1ccc(C(=O)c2ccccc2)c(C)c1
2. CCCCC1(CC)COC(CCC)OC1 (stereo not given)
3. COc1ccc(-c2cc(-c3cc(-c4ccc(OC)cc4)nc(N)n3)nc(N)n2)cc1
4. CC(C)=NNC(N)=S
5. CCOc1ccc(Br)cc1/C=N\N=C\c1cc(Br)ccc1OCC

[111, 79.7, 105, 85.8, 92.2]
